Assembled from different publications: pKi for Vasopressin V1a receptor (Homo sapiens, UniProt P37288).
pKi: −log10 of the molar value.
reported_metric: pKi

compound_structure | system | reported_metric | value_observed
Cc1[nH]c2ccccc2c1C(=O)N1CCC(n2c(=O)[nH]c3ccccc32)CC1 | Vasopressin V1a receptor (Homo sapiens, UniProt P37288) | pKi | 7.41
O=C(c1cn(-c2cc(F)cc(F)c2)c2cc(Cl)ccc12)N1CCC2(CC1)OCc1ccccc12 | Vasopressin V1a receptor (Homo sapiens, UniProt P37288) | pKi | 8.40
O=C(c1cn(C(=O)c2ccccc2F)c2cc(Cl)ccc12)N1CCC2(CC1)OCc1ccccc12 | Vasopressin V1a receptor (Homo sapiens, UniProt P37288) | pKi | 8.07
O=C1OC2(CCN(C(=O)c3cc4cc(Cl)ccc4[nH]3)CC2)c2ccc(F)cc21 | Vasopressin V1a receptor (Homo sapiens, UniProt P37288) | pKi | 7.38
Cc1c(C(=O)N2CCC3(CC2)OCc2ccccc23)c2ccccc2n1S(=O)(=O)c1ccccc1 | Vasopressin V1a receptor (Homo sapiens, UniProt P37288) | pKi | 8.02
CN(CCNC(=O)c1[nH]c2cc(Cl)ccc2c1C(=O)N1CCC2(CC1)OC(=O)c1cc(F)ccc12)C(=O)OC(C)(C)C | Vasopressin V1a receptor (Homo sapiens, UniProt P37288) | pKi | 8.24
CN1CN(c2ccccc2)C2(CCN(C(=O)c3cn(Cc4cc(F)cc(F)c4)c4cc(Cl)ccc34)CC2)C1=O | Vasopressin V1a receptor (Homo sapiens, UniProt P37288) | pKi | 7.68
N#CCC1(Cn2cc(C(=O)N3CCC4(CC3)OC(=O)c3ccccc34)c3ccc(Cl)cc32)CC1 | Vasopressin V1a receptor (Homo sapiens, UniProt P37288) | pKi | 8.68
O=C(c1cn(S(=O)(=O)c2cc(F)cc(F)c2)c2cc(Cl)ccc12)N1CCC2(CC1)OCc1ccccc12 | Vasopressin V1a receptor (Homo sapiens, UniProt P37288) | pKi | 7.60
CCN(CC)C(=O)c1[nH]c2cc(Cl)ccc2c1C(=O)N1CCC2(CC1)OC(=O)c1cc(F)ccc12 | Vasopressin V1a receptor (Homo sapiens, UniProt P37288) | pKi | 7.91
O=C1OC2(CCN(C(=O)c3c[nH]c4cc(Cl)ccc34)CC2)c2ccccc21 | Vasopressin V1a receptor (Homo sapiens, UniProt P37288) | pKi | 8.36
O=C(c1cn(-c2cccc(F)c2)c2cc(Cl)ccc12)N1CCC2(CC1)OCc1ccccc12 | Vasopressin V1a receptor (Homo sapiens, UniProt P37288) | pKi | 8.60
Cc1c(C(=O)N2CCC(n3c(N4CCCCC4)nc4ccccc43)CC2)c2ccccc2n1Cc1ccccc1 | Vasopressin V1a receptor (Homo sapiens, UniProt P37288) | pKi | 8.22
Cc1c(C(=O)N2CCC3(CC2)OCc2ccccc23)c2ccccc2n1Cc1cccc(F)c1 | Vasopressin V1a receptor (Homo sapiens, UniProt P37288) | pKi | 9.30
O=C(c1cn(C(=O)N2CCCCC2)c2cc(Cl)ccc12)N1CCC(n2c(=O)[nH]c3ccccc32)CC1 | Vasopressin V1a receptor (Homo sapiens, UniProt P37288) | pKi | 7.85
O=C(c1c[nH]c2cc(Cl)ccc12)N1CCC2(CC1)NCc1ccccc12 | Vasopressin V1a receptor (Homo sapiens, UniProt P37288) | pKi | 6.86
O=C(c1cn(C(=O)c2cccc(F)c2F)c2cc(Cl)ccc12)N1CCC(n2c(=O)[nH]c3ccccc32)CC1 | Vasopressin V1a receptor (Homo sapiens, UniProt P37288) | pKi | 7.60
O=C1OC2(CCN(C(=O)c3cn(Cc4ccc(Cl)nc4)c4cc(Cl)ccc34)CC2)c2ccc(F)cc21 | Vasopressin V1a receptor (Homo sapiens, UniProt P37288) | pKi | 8.54
Cc1noc(C)c1Cn1cc(C(=O)N2CCC3(CC2)OC(=O)c2cc(F)ccc23)c2ccc(Cl)cc21 | Vasopressin V1a receptor (Homo sapiens, UniProt P37288) | pKi | 8.54
O=C(c1cc2cc(Cl)ccc2[nH]1)N1CCC2(CC1)OCc1ccccc12 | Vasopressin V1a receptor (Homo sapiens, UniProt P37288) | pKi | 8.26
O=C1OC2(CCN(C(=O)c3cn(C(=O)N4CCCCC4)c4cc(Cl)ccc34)CC2)c2ccccc21 | Vasopressin V1a receptor (Homo sapiens, UniProt P37288) | pKi | 8.21
CN(C)C(=O)Cn1cc(C(=O)N2CCC3(CC2)OC(=O)c2cc(F)ccc23)c2ccc(Cl)cc21 | Vasopressin V1a receptor (Homo sapiens, UniProt P37288) | pKi | 9.10
O=C(Cn1cc(C(=O)N2CCC(n3c(=O)[nH]c4ccccc43)CC2)c2ccc(Cl)cc21)c1ccc(F)c(F)c1 | Vasopressin V1a receptor (Homo sapiens, UniProt P37288) | pKi | 7.74
Cc1c(C(=O)N2CCC(n3c(=O)n(C)c4ccccc43)CC2)c2ccccc2n1Cc1ccccc1 | Vasopressin V1a receptor (Homo sapiens, UniProt P37288) | pKi | 7.89
CN(C)C(=O)Cn1cc(C(=O)N2CCC3(CC2)C(=O)N(C)CN3c2ccccc2)c2ccc(Cl)cc21 | Vasopressin V1a receptor (Homo sapiens, UniProt P37288) | pKi | 7.85
O=C(c1cn(C(=O)c2cccc(F)c2)c2cc(Cl)ccc12)N1CCC(n2c(=O)[nH]c3ccccc32)CC1 | Vasopressin V1a receptor (Homo sapiens, UniProt P37288) | pKi | 7.92
CN(C)Cc1cc(Cl)cc2cc(C(=O)N3CCC4(CC3)OCc3ccccc34)[nH]c12 | Vasopressin V1a receptor (Homo sapiens, UniProt P37288) | pKi | 8.44
Cc1nnc(N2CCC(N(C)c3ncccn3)CC2)n1-c1ccc(Cl)cc1 | Vasopressin V1a receptor (Homo sapiens, UniProt P37288) | pKi | 8.83
O=C1OC2(CCN(C(=O)c3cn(Cc4cc(F)cc(F)c4)c4cc(Cl)ccc34)CC2)c2ccc(Br)cc21 | Vasopressin V1a receptor (Homo sapiens, UniProt P37288) | pKi | 8.42
O=C(Cn1cc(C(=O)N2CCC3(CC2)OCc2ccccc23)c2ccc(Cl)cc21)c1ccccn1 | Vasopressin V1a receptor (Homo sapiens, UniProt P37288) | pKi | 8.80
Cc1cc(Cn2cc(C(=O)N3CCC4(CC3)OC(=O)c3cc(F)ccc34)c3ccc(Cl)cc32)ccn1 | Vasopressin V1a receptor (Homo sapiens, UniProt P37288) | pKi | 8.66

* * *

pKi: −log10 of the molar value.
Assembled from different publications: pKi for Vasopressin V1a receptor (Homo sapiens).

compound_structure | pKi
C[C@@H](c1ccccc1)n1c(CN2CCCCC2)nnc1C1CCN(c2ccccn2)CC1 | 7.79
O=C(Cn1cc(C(=O)N2CCC(n3c(=O)[nH]c4ccccc43)CC2)c2ccc(Cl)cc21)c1ccccc1F | 8.70
O=C1OC2(CCN(C(=O)c3cn(CC(=O)N4CCCCC4)c4cc(Cl)ccc34)CC2)c2ccccc21 | 8.89
Cc1nc(Cn2cc(C(=O)N3CCC4(CC3)OCc3ccccc34)c3ccc(Cl)cc32)c(C)o1 | 8.66

* * *

pKi: −log10 of the molar value.
Assembled from different publications: pKi for UniProt P37288.

compound_structure | system | pKi
CN(C)CCn1c(=O)n(C2CCN(C(=O)c3c[nH]c4cc(Cl)ccc34)CC2)c2ccccc21 | UniProt P37288 | 8.30
Cc1ccc2c(C)c(C(=O)N3CCC4(CC3)COc3ccccc34)[nH]c2c1C | UniProt P37288 | 8.01
N#CCCn1cc(C(=O)N2CCC3(CC2)OC(=O)c2cc(F)ccc23)c2ccc(Cl)cc21 | UniProt P37288 | 8.60
CC(=O)NCCn1cc(C(=O)N2CCC3(CC2)OCc2ccccc23)c2ccc(Cl)cc21 | UniProt P37288 | 8.89
COc1ccccc1-c1nc(Cn2c(C)c(C(=O)N3CCC4(CC3)OCc3ccccc34)c3ccccc32)c(C)o1 | UniProt P37288 | 7.91
COc1ccc2[nH]c(C(=O)N3CCC(n4c(=O)[nH]c5ccccc54)CC3)c(NC(=O)c3ccccc3[N+](=O)[O-])c2c1 | UniProt P37288 | 7.70
CN(C)C(=O)Cn1cc(C(=O)N2CCC(n3c(=O)[nH]c4ccccc43)CC2)c2ccc(Cl)cc21 | UniProt P37288 | 8.70

* * *

Assembled from different publications: pKi for Vasopressin V1a receptor (Homo sapiens, UniProt P37288).
pKi: −log10 of the molar value.

compound | system | pKi
O=C(c1cc(F)cc(F)c1)N1CCC(c2nnc(Cn3nccn3)n2-c2ccc(Cl)cc2)CC1 | Vasopressin V1a receptor (Homo sapiens, UniProt P37288) | 8.53
O=C(c1cn(CC2CCNC2)c2cc(Cl)ccc12)N1CCC2(CC1)OCc1ccccc12 (stereo not shown) | Vasopressin V1a receptor (Homo sapiens, UniProt P37288) | 8.57
O=C(Cn1cc(C(=O)N2CCC3(CC2)OC(=O)c2ccccc23)c2ccc(Cl)cc21)c1cc(F)ccc1F | Vasopressin V1a receptor (Homo sapiens, UniProt P37288) | 8.52
CN1CCc2nnc(C3CCN(c4ccccn4)CC3)n2-c2ccc(Cl)cc2C1 | Vasopressin V1a receptor (Homo sapiens, UniProt P37288) | 8.38
O=C(c1cn(C(=O)c2cc(F)cc(F)c2)c2cc(Cl)ccc12)N1CCC(n2c(=O)[nH]c3ccccc32)CC1 | Vasopressin V1a receptor (Homo sapiens, UniProt P37288) | 7.82
NCCNC(=O)Cn1cc(C(=O)N2CCC3(CC2)OCc2ccccc23)c2ccc(Cl)cc21 | Vasopressin V1a receptor (Homo sapiens, UniProt P37288) | 8.64
c1ccc(Cn2c(CN3CCCCC3)nnc2C2CCN(c3ccccn3)CC2)cc1 | Vasopressin V1a receptor (Homo sapiens, UniProt P37288) | 7.92
N#CCn1c(C(=O)N2CCC3(CC2)C(=O)Nc2ccc(Br)cc23)cc2cc(Cl)ccc21 | Vasopressin V1a receptor (Homo sapiens, UniProt P37288) | 7.67
O=C(c1c[nH]c2cc(Cl)ccc12)N1CCC2(C=Cc3ccccc32)CC1 | Vasopressin V1a receptor (Homo sapiens, UniProt P37288) | 8.09
O=C(Cn1cc(C(=O)N2CCC3(CC2)OCc2ccccc23)c2ccc(Cl)cc21)N1CCOCC1 | Vasopressin V1a receptor (Homo sapiens, UniProt P37288) | 9.00
O=C1OC2(CCN(C(=O)c3c(C(=O)N4CCCCC4)[nH]c4cc(Cl)ccc34)CC2)c2ccc(F)cc21 | Vasopressin V1a receptor (Homo sapiens, UniProt P37288) | 7.97
CN(C)C(=O)Cn1cc(C(=O)N2CCC3(CC2)OC(=O)c2ccccc23)c2ccc(Cl)cc21 | Vasopressin V1a receptor (Homo sapiens, UniProt P37288) | 9.40
O=C1OC2(CCN(C(=O)c3cn(-c4ccccn4)c4cc(Cl)ccc34)CC2)c2ccc(F)cc21 | Vasopressin V1a receptor (Homo sapiens, UniProt P37288) | 8.30
Cc1cc(Cn2cc(C(=O)N3CCC4(CC3)OC(=O)c3cc(F)ccc34)c3ccc(Cl)cc32)nn1C | Vasopressin V1a receptor (Homo sapiens, UniProt P37288) | 8.66
CCN(CC)C(=O)Cn1cc(C(=O)N2CCC3(CC2)OC(=O)c2ccccc23)c2ccccc21 | Vasopressin V1a receptor (Homo sapiens, UniProt P37288) | 7.93
O=C(c1c[nH]c2cc(Cl)ccc12)N1CCC2(CC1)CNc1ccccc12 | Vasopressin V1a receptor (Homo sapiens, UniProt P37288) | 7.57
Cc1cc2c(C(=O)N3CCC4(CC3)OCc3ccccc34)cn(CC(=O)N(C)C)c2cc1Cl | Vasopressin V1a receptor (Homo sapiens, UniProt P37288) | 8.48
O=C1OC2(CCN(C(=O)c3cn(CC(=O)N4CCOCC4)c4cc(Cl)ccc34)CC2)c2ccc(F)cc21 | Vasopressin V1a receptor (Homo sapiens, UniProt P37288) | 8.96
Cc1c(C(=O)N2CCC3(CC2)OCc2ccc(Cl)cc23)c2ccccc2n1Cc1ccccc1 | Vasopressin V1a receptor (Homo sapiens, UniProt P37288) | 8.54
O=C(Cn1cc(C(=O)N2CCC3(CC2)OC(=O)c2ccccc23)c2ccc(Cl)cc21)c1cccc(F)c1 | Vasopressin V1a receptor (Homo sapiens, UniProt P37288) | 8.74
Cc1c(C(=O)N2CCC3(CC2)OCc2ccccc23)c2ccccc2n1C(=O)c1ccccc1 | Vasopressin V1a receptor (Homo sapiens, UniProt P37288) | 7.96
CC(C)(C)OC(=O)Cn1cc(C(=O)N2CCC3(CC2)OC(=O)c2cc(F)ccc23)c2ccc(Cl)cc21 | Vasopressin V1a receptor (Homo sapiens, UniProt P37288) | 8.70
